Consider the following compounds and their measured DC50 readings.
Target: KRas-G12D (Homo sapiens, UniProt P01116, G12D)
Construct: insert the HiBiT tag onto the N-terminus of one or more of the endogenous KRas alleles; host or cells: AsPC-1 HiBiT-KRasG12D knock-in clone (one tagged allele, two untagged KRasG12D alleles)
Sequence (P01116 1-188 isoform P01116-2 G12D): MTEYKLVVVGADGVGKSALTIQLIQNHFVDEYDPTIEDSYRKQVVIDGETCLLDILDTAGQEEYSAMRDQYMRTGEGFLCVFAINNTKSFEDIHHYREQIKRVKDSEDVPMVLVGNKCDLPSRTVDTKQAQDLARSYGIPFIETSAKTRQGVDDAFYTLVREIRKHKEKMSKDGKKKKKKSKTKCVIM
Experiment: HiBiT Degradation Assay (G12D), AsPC-1 HiBiT-KRasG12D cells, 24 hr
Assay type: cell-based
Settings: AsPC-1 cells

Dear colleague, please send me the reported DC50 for CCc1cccc2cc(O)cc(-c3ncc4c(N5CC6CCC(C5)N6)nc(OCCN5CCC(CC6CCN(CC7CCN(c8cccc9c8CN(C8CCC(=O)NC8=O)C9=O)CC7)CC6)CC5)nc4c3F)c12 (stereo not shown) when you can.
< 5.1 µM

Determine from records and report DC50 for C#Cc1c(F)ccc2cc(O)cc(-c3ncc4c(N5CC6CCC(C5)N6)nc(OCCN5CCC(CC6CCN(CC7CCN(c8cccc9c8CN(C8CCC(=O)NC8=O)C9=O)CC7)CC6)CC5)nc4c3F)c12 (stereo not shown)
< 5.1 µM

Please look at this compound and report its DC50: C#Cc1c(F)ccc2cc(O)cc(-c3ncc4c(N5CC6CCC(C5)N6)nc(OCCN5CCC6(CC5)CCN(CC5(F)CCN(c7ccc8c(c7F)CN(C7CCC(=O)NC7=O)C8=O)CC5)CC6)nc4c3F)c12 (stereo not shown)
< 5.1 µM

Fill in reported DC50 for this entry: C#Cc1c(F)ccc2cc(O)cc(-c3ncc4c(N5CC6CCC(C5)N6)nc(OC[C@@H]5C[C@@H](OC6CCN(CC7CN(c8ccc9c(c8)CN(C8CCC(=O)NC8=O)C9=O)C7)CC6)CN5C)nc4c3F)c12 (stereo partly shown)
< 5.1 µM

Please indicate DC50 recorded for CCc1cccc2cc(O)cc(-c3ncc4c(N5CC6CCC(C5)N6)nc(OC[C@@]56CCCN5[C@H](COC(=O)N5CCN(c7ccc8c(c7)CN(C7CCC(=O)NC7=O)C8=O)CC5)CC6)nc4c3F)c12 (stereo partly shown)
< 5.1 µM

Give the value of DC50 reported for the following: C#Cc1c(F)ccc2cccc(-c3ncc4c(N5CC6CCC(C5)N6)nc(OC[C@@]56CCCN5[C@H](CN5CCN(CC7CCN(c8ccc9c(c8)CN(C8CCC(=O)NC8=O)C9=O)CC7)CC5)CC6)nc4c3F)c12 (stereo partly shown)
< 5.1 µM

Return the recorded DC50 value; entry: C#Cc1c(F)ccc2cc(O)cc(-c3ncc4c(N5CC6CCC(C5)N6)nc(OCCN5CCC(CC6CCN(c7ccc8c(c7)n(C(C)C)c(=O)n8C7CCC(=O)NC7=O)CC6)CC5)nc4c3F)c12 (stereo not shown)
< 5.1 µM

###

Target: KRas-G12D (Homo sapiens, UniProt P01116, G12D)
Construct: insert the HiBiT tag onto the N-terminus of one or more of the endogenous KRas alleles; host or cells: AsPC-1 HiBiT-KRasG12D knock-in clone (one tagged allele, two untagged KRasG12D alleles)
Assay: HiBiT Degradation Assay (G12D), AsPC-1 HiBiT-KRasG12D cells, 24 hr
Assay type: cell-based
Conditions: AsPC-1 cells
Measurement Label: DC50

| Molecule | DC50 |
| --- | --- |
| CCc1cccc2cc(O)cc(-c3ncc4c(N5CC6CCC(C5)N6)nc(OC[C@]56CCCN5[C@@H](COC(=O)N5CCN(c7ccc8c(c7)CN(C7CCC(=O)N(C)C7=O)C8=O)CC5)CC6)nc4c3F)c12 (some centres unmarked) | 0.1 to 5.25 µM |
| CCc1cccc2cc(O)cc(-c3ncc4c(N5CC6CCC(C5)N6)nc(OC[C@]56CCCN5[C@@H](COC(=O)N5CCN(c7ccc8c(c7)CN(C7CCC(=O)NC7=O)C8=O)CC5)CC6)nc4c3F)c12 (some centres unmarked) | < 5.1 µM |
| CCc1cccc2cc(O)cc(-c3ncc4c(N5CC6CCC(C5)N6)nc(OCCN5CCN(CC6CCN(c7ccc(OC)c(C(=O)NC8CCC(=O)NC8=O)c7)CC6)CC5)nc4c3F)c12 (centres unmarked) | 0.25 to 1 µM |
| C#Cc1c(F)ccc2cc(O)cc(-c3ncc4c(N5CC6CCC(C5)N6)nc(OCCN5CCC(C)(CC6CCN(CC7CCN(c8ccc9c(c8)n(C)c(=O)n9C8CCC(=O)NC8=O)CC7)CC6)CC5)nc4c3F)c12 (centres unmarked) | < 5.1 µM |

Tell me measured DC50 for C#Cc1c(F)ccc2cc(O)cc(-c3ccc4c(N5CC6CCC(C5)N6)nc(OCCN5CCC(CC6CCN(CC7CCN(c8ccc9c(c8F)CN(C8CCC(=O)NC8=O)C9=O)CC7)CC6)CC5)nc4c3F)c12 (centres unmarked) please.
< 5.1 µM

###

Molecular target: KRas-G12D (Homo sapiens, UniProt P01116, G12D)
Construct: insert the HiBiT tag onto the N-terminus of one or more of the endogenous KRas alleles; host or cells: AsPC-1 HiBiT-KRasG12D knock-in clone (one tagged allele, two untagged KRasG12D alleles)
Test: HiBiT Degradation Assay (G12D), AsPC-1 HiBiT-KRasG12D cells, 24 hr
Format: cell-based
Details: AsPC-1 cells
Measurement Label: DC50

| Molecule | DC50 |
| --- | --- |
| C#Cc1c(F)ccc2cc(O)cc(-c3ncc4c(N5CC6CCC(C5)N6)nc(OCCN5CCC(CN6CCC(CC7CCN(c8ccc9c(c8)n(C)c(=O)n9C8CCC(=O)NC8=O)CC7)CC6)CC5)nc4c3F)c12 (stereo not shown) [Compound 82] | < 5.1 µM |
| C#Cc1c(F)ccc2cc(O)cc(-c3ncc4c(N5CC6CCC(C5)N6)nc(OCCN5CCC(CN6CCC7(CC6)CCN(c6ccc8c(c6)CN(C6CCC(=O)NC6=O)C8=O)CC7)CC5)nc4c3F)c12 (stereo not shown) [Compound 93] | < 5.1 µM |
| CCc1c(F)ccc2cc(O)cc(-c3ncc4c(N5CC6CCC(C5)N6)nc(OCCN5CCC(CC6CCN(CC7CCN(c8ccc9c(c8)CN(C8CCC(=O)NC8=O)C9=O)CC7)CC6)CC5)nc4c3F)c12 (stereo not shown) [Compound 86] | < 5.1 µM |
| CCc1cccc2cc(O)cc(-c3ncc4c(N5CC6CCC(C5)N6)nc(OCCN5CCC(CN6CCC(Oc7ccc8c(c7)C(=O)N(C7CCC(=O)NC7=O)C8=O)CC6)CC5)nc4c3F)c12 (stereo not shown) [Compound 8] | 0.25 to 1 µM |
| C#Cc1c(F)ccc2cc(O)cc(-c3ccc4c(N5CC6CCC(C5)N6)nc(OCCN5CCC(CC6CCN(CC7CCN(c8ccc9c(c8F)CN(C8CCC(=O)NC8=O)C9=O)CC7)CC6)CC5)nc4c3)c12 (stereo not shown) [Compound 108] | < 5.1 µM |
| C#Cc1c(F)ccc2cc(O)cc(-c3ncc4c(N5CC6CCC(C5)N6)nc(OCCN5CCC(F)(CN6CCC(CC7CCN(c8ccc9c(c8)n(C)c(=O)n9C8CCC(=O)NC8=O)CC7)CC6)CC5)nc4c3F)c12 (stereo not shown) [Compound 183] | < 5.1 µM |
| C#Cc1c(F)ccc2cc(O)cc(-c3ncc4c(N5CC6CCC(C5)N6)nc(OCCN5CCC(CC6(F)CCN(CC7CCN(c8ccc9c(c8)CN(C8CCC(=O)NC8=O)C9=O)CC7)CC6)CC5)nc4c3F)c12 (stereo not shown) [Compound 90] | > 1 µM |
| CCc1cccc2cc(O)cc(-c3ncc4c(N5CC6CCC(C5)N6)nc(OCCN5CCC(CN6CCC7(CC6)CCN(c6ccc8c(c6)C(=O)N(C6CCC(=O)NC6=O)C8=O)CC7)CC5)nc4c3F)c12 (stereo not shown) [Compound 22] | 0.1 to 5.25 µM |
| C#Cc1c(F)ccc2cc(O)cc(-c3ncc4c(N5CC6CCC(C5)N6)nc(OCCN5CCC6(CC5)CCN(CC5CCN(c7cc(C)c8c(c7F)CN(C7CCC(=O)NC7=O)C8=O)CC5)CC6)nc4c3F)c12 (stereo not shown) [Compound 153] | < 5.1 µM |

The record that follows has no DC50 shown yet.
Identify measured DC50 associated with CCc1cccc2cc(O)cc(-c3ncc4c(N5CC6CCC(C5)N6)nc(OCCN5CCC(c6ccc7c(c6)C(=O)N(C6CCC(=O)NC6=O)C7=O)CC5)nc4c3F)c12 (stereo not shown) [Compound 34]
0.25 to 1 µM

###

Target: KRas-G12D (Homo sapiens, UniProt P01116, G12D)
Construct: insert the HiBiT tag onto the N-terminus of one or more of the endogenous KRas alleles; host or cells: AsPC-1 HiBiT-KRasG12D knock-in clone (one tagged allele, two untagged KRasG12D alleles)
Assay: HiBiT Degradation Assay (G12D), AsPC-1 HiBiT-KRasG12D cells, 24 hr
Type: cell-based
Conditions: AsPC-1 cells
Measurement Label: DC50

| Compound | Reported Value |
| --- | --- |
| C#Cc1c(F)ccc2cccc(-c3ncc4c(N5CC6CCC(C5)N6)nc(OC[C@@]56CCCN5[C@H](CN5CCN(CC7CCN(c8ccc9c(c8F)CN(C8CCC(=O)NC8=O)C9=O)CC7)CC5)CC6)nc4c3F)c12 (some centres unmarked) | < 5.1 µM |
| C#Cc1c(F)ccc2cc(O)cc(-c3ncc4c(N5CC6CCC(C5)N6)nc(OC[C@@H]5CC[C@@H](CN6CCN(c7ccc8c(c7)n(C(C)C)c(=O)n8C7CCC(=O)NC7=O)CC6)N5C)nc4c3F)c12 (some centres unmarked) | < 5.1 µM |
| C#Cc1c(F)ccc2cc(O)cc(-c3ncc4c(C5CC6CCC(C5)N6)nc(OCCN5CCC(CC6CCN(CC7CCN(c8ccc9c(c8)C(=O)N(C8CCC(=O)NC8=O)C9=O)CC7)CC6)CC5)nc4c3F)c12 (centres unmarked) | < 5.1 µM |
| CCc1cccc2cc(O)cc(-c3ncc4c(N5CC6CCC(C5)N6)nc(OCCN5CCC(CC6CCN(CC7CCN(c8cccc9c8C(=O)N(C8CCC(=O)NC8=O)C9=O)CC7)CC6)CC5)nc4c3F)c12 (centres unmarked) | 0.1 to 5.25 µM |

Name the recorded DC50 of CCc1cccc2cc(O)cc(-c3ncc4c(N5CC6CCC(C5)N6)nc(OC[C@@]56CCCN5[C@H](COC(=O)N5CCN(c7ccc8c(c7)C(=O)N(C7CCC(=O)NC7=O)C8=O)CC5)CC6)nc4c3F)c12 (some centres unmarked) , assay system KRas-G12D (Homo sapiens, UniProt P01116, G12D).
< 5.1 µM
